Counter-ions that a name gives are not always drawn.
Let's go through some pIC50 measurements on MPS1 (Homo sapiens (Human), UniProt P33981) together.
Sequence (P33981 2-857): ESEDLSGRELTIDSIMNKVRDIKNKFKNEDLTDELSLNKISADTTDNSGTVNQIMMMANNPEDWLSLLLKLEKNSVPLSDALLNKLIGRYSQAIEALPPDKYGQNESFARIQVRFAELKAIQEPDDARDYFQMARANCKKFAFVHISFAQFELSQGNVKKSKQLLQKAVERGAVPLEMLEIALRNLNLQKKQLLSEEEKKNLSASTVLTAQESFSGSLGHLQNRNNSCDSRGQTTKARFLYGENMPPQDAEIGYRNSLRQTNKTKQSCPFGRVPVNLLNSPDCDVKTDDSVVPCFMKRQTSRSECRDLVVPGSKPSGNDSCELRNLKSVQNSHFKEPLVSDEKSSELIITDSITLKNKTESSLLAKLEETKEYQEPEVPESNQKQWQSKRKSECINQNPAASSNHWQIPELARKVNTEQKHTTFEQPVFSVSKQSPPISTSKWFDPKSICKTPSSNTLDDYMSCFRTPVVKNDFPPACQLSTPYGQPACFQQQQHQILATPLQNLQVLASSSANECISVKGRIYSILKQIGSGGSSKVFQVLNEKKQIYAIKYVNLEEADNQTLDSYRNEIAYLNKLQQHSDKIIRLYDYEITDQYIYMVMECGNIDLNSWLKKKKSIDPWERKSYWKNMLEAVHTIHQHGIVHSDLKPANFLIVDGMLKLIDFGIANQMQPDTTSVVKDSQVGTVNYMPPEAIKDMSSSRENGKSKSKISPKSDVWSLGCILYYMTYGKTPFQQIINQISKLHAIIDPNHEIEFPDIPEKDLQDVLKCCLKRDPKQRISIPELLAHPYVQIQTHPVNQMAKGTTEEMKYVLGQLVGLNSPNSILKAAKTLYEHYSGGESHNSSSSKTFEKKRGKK
Numbers only, as −log10 of the molar value.

Known pIC50 results, listed for orientation:
compound="CSc1ncc2ccc3c(C(N)=O)c[nH]c3c2n1 [Compound 36]" observed=6.09
compound="CCc1cccc(CC)c1NC(=O)c1c2c(n(C)c1C)-c1nc(Nc3ccc(N4CCC(N5CCCC5)CC4)cc3OC)ncc1CC2 [Compound 3]" observed=7.00
compound="CSc1ncc2c(n1)-c1c(c(C(N)=O)cn1CCO)CC2 [Compound 25]" observed=5.61

Kindly review the next compound as well.
Given item CSc1ncc2ccc3c(C(N)=O)cn(CC(C)(C)CN)c3c2n1 [Compound 38, hydrochloride] , the value recorded as its pIC50 is 5.53
